# credit: paper PMC10247784

ASSAYED TARGET: human TAS2R1 (Homo sapiens)
Construct: expressed in transfected cells; host or cells: HEK293T-Gα16gust44
Sequence (Q9NYW7 1-299): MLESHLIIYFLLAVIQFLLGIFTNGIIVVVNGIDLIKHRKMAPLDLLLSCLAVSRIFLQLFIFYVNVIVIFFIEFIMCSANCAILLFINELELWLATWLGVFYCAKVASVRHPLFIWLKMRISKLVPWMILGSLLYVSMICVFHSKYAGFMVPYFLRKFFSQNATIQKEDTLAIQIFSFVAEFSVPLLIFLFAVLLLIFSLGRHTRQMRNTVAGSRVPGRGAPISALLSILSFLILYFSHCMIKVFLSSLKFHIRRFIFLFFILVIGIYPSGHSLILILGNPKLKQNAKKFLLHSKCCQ
ASSAY EXPLANATION: Calcium imaging assay (FLIPR), HEK293T-Gα16gust44 cells transfected with human TAS2R1
Assay type: cell-based
CONDITIONS: Time 76.781 s
Documented RLU across a set of compounds
Provide only the numeric value, understood in RLU.

// below: answered compounds
| ENTRY SMILES | ASSAYED TARGET | RESULT UNIT | RLU |
| --- | --- | --- | --- |
| C[C@H](CCC(=O)NCCS(=O)(=O)O)[C@H]1CC[C@H]2[C@@H]3[C@H](O)C[C@@H]4C[C@H](O)CC[C@]4(C)[C@H]3C[C@H](O)[C@]12C | human TAS2R1 (Homo sapiens) | RLU | 422.764 |
| C[C@H](CCC(=O)NCC(=O)O)[C@H]1CC[C@H]2[C@@H]3[C@H](O)C[C@@H]4C[C@H](O)CC[C@]4(C)[C@H]3C[C@H](O)[C@]12C | human TAS2R1 (Homo sapiens) | RLU | 621.396 |
| C[C@H](CCC(=O)O)[C@H]1CC[C@H]2[C@@H]3CC[C@@H]4C[C@H](O)CC[C@]4(C)[C@H]3C[C@H](O)[C@]12C | human TAS2R1 (Homo sapiens) | RLU | 407.874 |

// moving on: another record for RLU
Prompt line: Value lookup for RLU; key = C[C@H](CCC(=O)NCCS(=O)(=O)O)[C@H]1CC[C@H]2[C@@H]3CC[C@@H]4C[C@H](O)CC[C@]4(C)[C@H]3CC[C@]12C
Response line: 740.295

====

ASSAYED TARGET: human TAS2R14 (Homo sapiens)
Construct: expressed in transfected cells; host or cells: HEK293T-Gα16gust44
Sequence (Q9NYV8 whole entry): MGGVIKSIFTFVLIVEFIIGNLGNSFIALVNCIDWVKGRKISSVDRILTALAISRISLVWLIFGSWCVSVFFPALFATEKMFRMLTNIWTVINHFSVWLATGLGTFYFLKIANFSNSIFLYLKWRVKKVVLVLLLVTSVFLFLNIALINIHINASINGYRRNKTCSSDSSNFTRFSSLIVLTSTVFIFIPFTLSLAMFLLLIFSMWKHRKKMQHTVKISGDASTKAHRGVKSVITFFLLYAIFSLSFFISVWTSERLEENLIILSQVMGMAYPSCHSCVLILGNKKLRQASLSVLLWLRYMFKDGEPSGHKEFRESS
ASSAY EXPLANATION: Calcium imaging assay (FLIPR), HEK293T-Gα16gust44 cells transfected with human TAS2R14
Assay type: cell-based
CONDITIONS: TAS2R14 trace; Time (s) 64.797 (Chenodeoxycholic Acid 64.781)
Protocol: This set of bile acids was chosen because of their commercial availability in high purities, their diversity within the class of bile acids and their previous detection and quantitation in human blood. Stock solutions were prepared in DMSO. […] Measured data were negative control corrected by subtracting the signal of the mock-transfected cells and exported to Microsoft Excel using the FLIPR software ScreenWorks 4.2. […]
PROPERTY NAME: RLU (RLU)
Provide only the numeric value, understood in RLU.

// below: answered compounds
| COMPOUND | RLU (RLU) |
| --- | --- |
| C[C@H](CCC(=O)O)[C@H]1CC[C@H]2[C@@H]3[C@H](O)C[C@@H]4C[C@H](O)CC[C@]4(C)[C@H]3CC[C@]12C [Chenodeoxycholic Acid, chenodeoxycholic acid] | 596.368 |
| C[C@H](CCC(=O)NCCS(=O)(=O)O)[C@H]1CC[C@H]2[C@@H]3[C@H](O)C[C@@H]4C[C@H](O)CC[C@]4(C)[C@H]3C[C@H](O)[C@]12C [Taurocholic Acid, taurocholic acid] | 572.542 |
| C[C@H](CCC(=O)NCC(=O)O)[C@H]1CC[C@H]2[C@@H]3[C@H](O)C[C@@H]4C[C@H](O)CC[C@]4(C)[C@H]3C[C@H](O)[C@]12C [Glycocholic Acid, glycocholic acid] | 518.587 |

Prompt line: Value lookup for RLU; key = C[C@H](CCC(=O)NCCS(=O)(=O)O)[C@H]1CC[C@H]2[C@@H]3CC[C@@H]4C[C@H](O)CC[C@]4(C)[C@H]3CC[C@]12C [Taurolithocholic Acid, taurolithocholic acid]
Response line: 213.968

Prompt line: Value lookup for RLU; key = C[C@H](CCC(=O)O)[C@H]1CC[C@H]2[C@@H]3[C@H](O)C[C@@H]4C[C@H](O)CC[C@]4(C)[C@H]3C[C@H](O)[C@]12C [Cholic Acid, cholic acid]
Response line: 760.673
